assay-info: AUC infinity in male C57 mouse at 1 mg/kg, iv measured upto 24 hrs
Type: ADME, organism-based
condition-label: in vivo
quantity-kind: AUC(0-inf)

CC(=O)OC[C@H]1O[C@@H](OC2=C(C)OC(=C(C)C)C2=O)[C@H](OC(C)=O)[C@@H](OC(C)=O)[C@@H]1OC(C)=O; 44 ng·h/mL

Next compound, AUC(0-inf) to be filled in.
Challenge: Fill blank: measured AUC(0-inf) of the compound `CC(C)=C1OC(C)=C(O[C@@H]2O[C@H](CO)[C@@H](O)[C@H](O)[C@H]2O)C1=O` is ____.
Response given: 594 ng·h/mL

###

assay-info: Toxicity in male Kunming mouse assessed as lethal dose administered as po measured after 5 weeks
Format: organism-based
condition-label: in vivo
quantity-kind: LD50 at 840 h

Challenge: Entry `CC(=O)OC[C@H]1O[C@@H](OC2=C(C)OC(=C(C)C)C2=O)[C@H](OC(C)=O)[C@@H](OC(C)=O)[C@@H]1OC(C)=O` : reported LD50 at 840 h = ?
Response given: > 500 mg/kg

###

assay-info: Selectivity ratio of CC50 for cytotoxicity against mouse Splenocyte to IC50 for immunosuppressive activity in mouse B-lymphocyte
Format: toxicity
condition-label: splenocytes (CC50) and B-lymphocytes (IC50)
quantity-kind: selectivity ratio
Could you keep your reply to the number by itself?

Example entries and their recorded answers appear below.
CC(=O)OC[C@H]1O[C@@H](OC2=C(C)OC(=C3CCCCC3)C2=O)[C@H](OC(C)=O)[C@@H](OC(C)=O)[C@@H]1OC(C)=O; 0.79
CC(=O)OC[C@H]1O[C@@H](OC2=C(C)OC(=C3CCCC3)C2=O)[C@H](OC(C)=O)[C@@H](OC(C)=O)[C@@H]1OC(C)=O; 2.73
CC(=O)OC[C@H]1O[C@@H](OC2=C(C)OC(=C3CCN(C(C)=O)CC3)C2=O)[C@H](OC(C)=O)[C@@H](OC(C)=O)[C@@H]1OC(C)=O; 1.74
CC(C)=C1OC(C)=C(O)C1=O; 4.77
CC(=O)OC[C@H]1O[C@@H](OC2=C(C)OC(=C(C)C)C2=O)[C@H](OC(C)=O)[C@@H](OC(C)=O)[C@@H]1OC(C)=O; 22

Challenge: Bench note: what selectivity ratio did `CC(=O)OC[C@H]1O[C@@H](OC2=C(C)OC(=C3CCOCC3)C2=O)[C@H](OC(C)=O)[C@@H](OC(C)=O)[C@@H]1OC(C)=O` show?
Response given: 3.11

Challenge: Okay, and `CC(C)=C1OC(C)=C(O[C@@H]2O[C@H](CO)[C@@H](O)[C@H](O)[C@H]2O)C1=O` ?
Response given: 1.9

Challenge: Please give the result for `CC(=O)OC[C@H]1O[C@@H](OC2=C(C)OC(=C3CCNCC3)C2=O)[C@H](OC(C)=O)[C@@H](OC(C)=O)[C@@H]1OC(C)=O` too.
Response given: 0.37

###

assay-info: MRT last in male C57 mouse at 5 mg/kg, po measured upto 24 hrs
Type: ADME, organism-based
condition-label: in vivo
quantity-kind: MRT last at 24 h (h)
Please give a number only; it is taken to be in h.

Challenge: Dear colleague, I am looking for the recorded MRT last at 24 h of the following compound: `CC(C)=C1OC(C)=C(O[C@@H]2O[C@H](CO)[C@@H](O)[C@H](O)[C@H]2O)C1=O`
Response given: 4.23

Challenge: Entry `CC(=O)OC[C@H]1O[C@@H](OC2=C(C)OC(=C(C)C)C2=O)[C@H](OC(C)=O)[C@@H](OC(C)=O)[C@@H]1OC(C)=O` please
Response given: 1.06
